As shown below, each of these compounds has a reported IC50 value.
- Assayed System: Prostaglandin G/H synthase 1 (Homo sapiens, UniProt P23219)
- Sequence (P23219 whole entry): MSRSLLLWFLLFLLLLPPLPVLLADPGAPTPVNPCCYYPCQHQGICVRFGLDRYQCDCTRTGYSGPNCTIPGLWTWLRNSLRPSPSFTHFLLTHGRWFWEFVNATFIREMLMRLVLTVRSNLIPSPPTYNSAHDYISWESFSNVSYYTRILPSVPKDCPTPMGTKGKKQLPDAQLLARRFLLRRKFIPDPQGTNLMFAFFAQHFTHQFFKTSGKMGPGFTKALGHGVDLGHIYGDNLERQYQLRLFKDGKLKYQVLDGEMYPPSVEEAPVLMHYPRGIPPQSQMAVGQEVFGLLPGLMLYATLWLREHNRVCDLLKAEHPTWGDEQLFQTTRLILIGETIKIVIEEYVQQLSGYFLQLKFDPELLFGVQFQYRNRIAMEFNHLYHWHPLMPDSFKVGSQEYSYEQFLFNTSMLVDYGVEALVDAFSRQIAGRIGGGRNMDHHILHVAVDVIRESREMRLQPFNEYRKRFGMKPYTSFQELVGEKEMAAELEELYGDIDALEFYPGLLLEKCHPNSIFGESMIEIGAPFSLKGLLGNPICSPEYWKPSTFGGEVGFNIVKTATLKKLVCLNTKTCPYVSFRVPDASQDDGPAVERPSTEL
- Experimental Details: Inhibition of human recombinant COX1 assessed as reduction in PGF2alpha formation using arachidonic acid as substrate preincubated with enzyme for 10 mins followed by substrate addition for 30 secs and measured after 1 hr by microplate reader based enzyme immunoassay
# number only, unit nM dropped from output

Worked examples, 4 compounds total:
N#Cc1cnn(-c2ccc(S(N)(=O)=O)cc2)c1NC(=O)CCCl	123
N#Cc1cnn(-c2ccc(S(N)(=O)=O)cc2)c1/N=C/c1ccc(Cl)cc1	169
N#Cc1cnn(-c2ccc(S(N)(=O)=O)cc2)c1NC(=O)CCl	104
N#Cc1cnn(-c2ccc(S(N)(=O)=O)cc2)c1NC(=O)CN1CCOCC1	64.7

With those in mind, consider the next compound.
Name the recorded IC50 of the item N#Cc1cnn(-c2ccc(S(N)(=O)=O)cc2)c1NC(=O)CCN1CCOCC1 in your answer.
876

Origin of the recorded values: ChEMBL document CHEMBL4393660
